tgt: Bombesin receptor subtype-3 (Mus musculus)
Sequence (O54798 whole entry): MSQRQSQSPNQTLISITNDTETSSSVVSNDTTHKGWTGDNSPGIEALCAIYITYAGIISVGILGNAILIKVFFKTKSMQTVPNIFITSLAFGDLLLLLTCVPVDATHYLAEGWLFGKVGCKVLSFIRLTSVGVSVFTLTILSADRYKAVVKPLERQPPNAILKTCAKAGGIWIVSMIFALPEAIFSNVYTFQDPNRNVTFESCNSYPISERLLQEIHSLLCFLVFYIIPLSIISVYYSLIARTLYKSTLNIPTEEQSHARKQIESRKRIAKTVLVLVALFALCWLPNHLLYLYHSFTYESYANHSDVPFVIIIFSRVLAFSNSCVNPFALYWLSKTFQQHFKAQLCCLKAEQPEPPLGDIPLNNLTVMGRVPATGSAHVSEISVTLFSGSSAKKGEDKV
assay-method-text: Agonistic activity at mouse BRS3 expressed in HEK293AEO cells by aequorin bioluminescence assay
value-kind: EC50 (nM)

Example entries begin here.
molecule: CC(C)CCc1cnc(CCc2ccc(-c3ccccc3C(=O)O)cc2)[nH]1
value-kind: EC50
readout-unit: nM
observed: 10
--
molecule: CCCCc1cnc(C(CCC)Cc2ccc(-c3ccccc3C(=O)O)cc2)[nH]1 (stereo unspecified)
value-kind: EC50
readout-unit: nM
observed: 165
--
molecule: Cc1ccc(Cc2cnc(CCc3ccc(-c4ccccc4C(=O)O)cc3)[nH]2)cc1
value-kind: EC50
readout-unit: nM
observed: 162
--
molecule: CCCCc1cnc(C(C)Cc2ccc(-c3ccccc3C(=O)O)cc2)[nH]1 (stereo unspecified)
value-kind: EC50
readout-unit: nM
observed: 184
--
molecule: COc1ccc(Cc2cnc(CCc3ccc(-c4ccccc4C(=O)O)cc3)[nH]2)cc1
value-kind: EC50
readout-unit: nM
observed: 513

a = N#Cc1ccccc1Cc1cnc(CCc2ccc(-c3ccccc3C(=O)O)cc2)[nH]1
b = CCCCc1cnc(C(CC)Cc2ccc(-c3ccccc3C(=O)O)cc2)[nH]1 (stereo unspecified)
c = O=C(O)c1ccccc1-c1ccc(CCc2ncc(Cc3cccc(F)c3F)[nH]2)cc1
List these items ordered by EC50, big to small. // respond by listing labels in the order requested a, b, c

---

assay-method-text: Clearance in Sprague-Dawley rat at 1 mg/kg, iv and 4 mg/kg, po
Type: ADME, organism-based
run-parameters: in vivo
value-kind: clearance (mL/min/kg)

molecule-smiles: CCCCc1cnc(CCc2ccc(-c3ccccc3C(=O)O)cc2)[nH]1
readout-unit: mL/min/kg
observed: 1.3
//
molecule-smiles: CC(C)(C)Cc1cnc(CCc2ccc(-c3ccccc3C(=O)O)cc2)[nH]1
readout-unit: mL/min/kg
observed: 1.02

---

assay-method-text: Half life in Sprague-Dawley rat at 1 mg/kg, iv and 4 mg/kg, po
Assay type: ADME, organism-based
run-parameters: in vivo
value-kind: half-life (h)

molecule-smiles: CCCCc1cnc(CCc2ccc(-c3ccccc3C(=O)O)cc2)[nH]1
readout-unit: h
half-life: 1.56
--
molecule-smiles: CC(C)(C)Cc1cnc(CCc2ccc(-c3ccccc3C(=O)O)cc2)[nH]1
readout-unit: h
half-life: 1.54

---

tgt: Bombesin receptor subtype-3 (Homo sapiens, UniProt P32247)
Sequence (P32247 whole entry): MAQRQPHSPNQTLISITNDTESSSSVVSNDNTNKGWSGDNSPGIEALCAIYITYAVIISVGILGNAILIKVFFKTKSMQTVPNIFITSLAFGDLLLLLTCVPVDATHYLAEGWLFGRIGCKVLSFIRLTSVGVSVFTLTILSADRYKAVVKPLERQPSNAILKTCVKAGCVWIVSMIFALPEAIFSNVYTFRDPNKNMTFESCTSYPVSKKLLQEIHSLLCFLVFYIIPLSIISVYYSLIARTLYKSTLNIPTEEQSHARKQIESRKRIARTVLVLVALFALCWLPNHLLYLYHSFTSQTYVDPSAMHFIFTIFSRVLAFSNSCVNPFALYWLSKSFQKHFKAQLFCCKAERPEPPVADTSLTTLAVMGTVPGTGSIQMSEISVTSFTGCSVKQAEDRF
assay-method-text: Agonistic activity at human BRS3 expressed in HEK293AEO cells by aequorin bioluminescence assay
value-kind: EC50 (nM)

a = Cc1ccccc1Cc1cnc(CCc2ccc(-c3ccccc3C(=O)O)cc2)[nH]1
b = CCC(C)(C)Cc1c[nH]c(CCc2ccc(-c3ccccc3C(=O)O)cc2)n1
Which is greater in EC50, the first item a or the second item b ? Indicate your choice by writing its label. a
(a: 127 nM, b: 25 nM)

I = O=C(O)c1ccccc1-c1ccc(CCc2ncc(C3CCCCC3)[nH]2)cc1
II = Cc1cccc(Cc2cnc(CCc3ccc(-c4ccccc4C(=O)O)cc3)[nH]2)c1
Which is greater in EC50, the first item I or the second item II ? Indicate your choice by writing its label. II

I = CCCCc1cnc(/C=C/c2ccc(-c3ccccc3C(=O)O)cc2)[nH]1
II = O=C(O)c1ccccc1-c1ccc(CCc2ncc(CC3CC3)[nH]2)cc1
Which is greater in EC50, the first item I or the second item II ? Indicate your choice by writing its label. I
(I: 4380 nM, II: 1000 nM)

---

assay-method-text: Oral bioavailability in Sprague-Dawley rat at 4 mg/kg
Type: ADME, organism-based
run-parameters: in vivo
value-kind: bioavailability (%)

molecule-smiles: CC(C)(C)Cc1cnc(CCc2ccc(-c3ccccc3C(=O)O)cc2)[nH]1
bioavailability, %: 19

molecule-smiles: CCCCc1cnc(CCc2ccc(-c3ccccc3C(=O)O)cc2)[nH]1
bioavailability, %: 16

---

tgt: UniProt:P32247
assay-method-text: Agonistic activity at human BRS3 expressed in HEK293AEO at 10 uM cells by aequorin bioluminescence assay relative to dY peptide
Format: functional, cell-based
value-kind: Activity (%)

compound: CCCCc1cnc(C(CCC)Cc2ccc(-c3ccccc3C(=O)O)cc2)[nH]1 (configuration not stated)
tgt: UniProt:P32247
Activity / %: 96
--
compound: O=C(O)c1ccccc1-c1ccc(CCc2ncc(CCc3ccccc3)[nH]2)cc1
tgt: UniProt:P32247
Activity / %: 86
--
compound: O=C(O)c1ccccc1-c1ccc(CCc2ncc(Cc3ccc(F)cc3)[nH]2)cc1
tgt: UniProt:P32247
Activity / %: 84
--
compound: O=C(O)c1ccccc1-c1ccc(CCc2ncc(Cc3cccc(F)c3)[nH]2)cc1
tgt: UniProt:P32247
Activity / %: 107

a = O=C(O)c1ccccc1-c1ccc(CCc2ncc(Cc3ccc(Cl)cc3)[nH]2)cc1
b = CCCCc1cnc(Cc2ccc(-c3ccccc3C(=O)O)cc2)[nH]1
Which is greater in Activity, the first item a or the second item b ? Indicate your choice by writing its label. a

---

tgt: Bombesin receptor subtype-3 (Homo sapiens)
assay-method-text: Agonistic activity at human BRS3 expressed in HEK293AEO at 10 uM cells by aequorin bioluminescence assay relative to dY peptide
Format: functional, cell-based
value-kind: Activity (%)

compound: O=C(O)c1ccccc1-c1ccc(CCc2ncc(CC3CCCCCC3)[nH]2)cc1
Activity / %: 106

I = Cc1ccc(Cc2cnc(CCc3ccc(-c4ccccc4C(=O)O)cc3)[nH]2)cc1
II = O=C(O)c1ccccc1-c1ccc(CCc2ncc(-c3ccccc3)[nH]2)cc1
III = CCCCc1cnc(C(Cc2ccc(-c3ccccc3C(=O)O)cc2)C(C)C)[nH]1 (stereo unspecified)
List these items ordered by Activity, big to small. // respond by listing labels in the order requested I, III, II
(I: 88%, III: 60%, II: 30%)

---

tgt: Bombesin receptor subtype-3 (Mus musculus) (UniProt O54798)
Sequence (whole entry): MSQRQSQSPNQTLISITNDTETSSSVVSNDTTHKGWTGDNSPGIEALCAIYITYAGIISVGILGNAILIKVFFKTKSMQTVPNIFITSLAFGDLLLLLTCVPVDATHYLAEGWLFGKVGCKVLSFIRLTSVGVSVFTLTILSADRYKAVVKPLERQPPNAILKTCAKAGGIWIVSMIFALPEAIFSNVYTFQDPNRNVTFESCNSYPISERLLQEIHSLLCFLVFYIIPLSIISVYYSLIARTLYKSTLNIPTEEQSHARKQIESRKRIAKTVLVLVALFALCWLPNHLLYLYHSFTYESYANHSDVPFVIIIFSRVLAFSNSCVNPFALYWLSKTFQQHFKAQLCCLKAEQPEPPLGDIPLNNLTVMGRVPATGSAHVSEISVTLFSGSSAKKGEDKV
assay-method-text: Agonistic activity at mouse BRS3 expressed in HEK293AEO cells at 10 uM by aequorin bioluminescence assay relative to dY peptide
Format: functional, cell-based
value-kind: Activity (%)

Example entries begin here.
molecule: O=C(O)c1ccccc1-c1ccc(CCc2ncc(C3CCCCC3)[nH]2)cc1
Activity (%): 116
//
molecule: CCCCc1cnc(C(CCCO)Cc2ccc(-c3ccccc3C(=O)O)cc2)[nH]1 (stereo unspecified)
Activity (%): 98
//
molecule: Cc1ccc(Cc2cnc(CCc3ccc(-c4ccccc4C(=O)O)cc3)[nH]2)cc1
Activity (%): 120
//
molecule: O=C(O)c1ccccc1-c1ccc(CCc2ncc(CC3CCCCC3)[nH]2)cc1
Activity (%): 102
//
molecule: CCCCc1cnc(CCc2ccc(-c3ccccc3C(=O)O)cc2)[nH]1
Activity (%): 116

a = O=C(O)c1ccccc1-c1ccc(CCc2ncc(CC3CCCCCC3)[nH]2)cc1
b = CCCCc1cnc(/C=C/c2ccc(-c3ccccc3C(=O)O)cc2)[nH]1
// compare measured Activity between a and b ; output the lower one Indicate your choice by writing its label. b

---

tgt: Bombesin receptor subtype-3 (Rattus norvegicus)
Sequence (Q8K418 whole entry): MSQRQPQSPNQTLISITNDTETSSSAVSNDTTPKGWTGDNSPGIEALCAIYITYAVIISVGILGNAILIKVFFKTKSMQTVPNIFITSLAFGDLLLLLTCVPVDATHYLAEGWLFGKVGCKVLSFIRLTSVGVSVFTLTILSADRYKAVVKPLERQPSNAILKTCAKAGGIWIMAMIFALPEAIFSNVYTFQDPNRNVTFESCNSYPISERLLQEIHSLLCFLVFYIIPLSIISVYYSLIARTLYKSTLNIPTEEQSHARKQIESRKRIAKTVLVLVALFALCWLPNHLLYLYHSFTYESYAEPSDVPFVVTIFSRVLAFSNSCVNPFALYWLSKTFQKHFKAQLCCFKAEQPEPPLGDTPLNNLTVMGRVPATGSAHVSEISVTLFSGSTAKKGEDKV
assay-method-text: Agonistic activity at rat BRS3 expressed in HEK293AEO at 10 uM by aequorin bioluminescence assay
value-kind: EC50 (µM)
Provide only the numeric value, understood in µM.

State the recorded EC50 for this entry: CCCCc1cnc(C(CCCO)Cc2ccc(-c3ccccc3C(=O)O)cc2)[nH]1 (stereo unspecified) 0.174
